- Test system: Key Broadleaf Weed and Crop Species
- ASSAY: Post-Emergent Test II: postemergent herbicidal activity, visual rating after 14 d (Table 7)
- Format: in vivo
- TEST PARAMETERS: post-emergence, 336 h, wild poinsettia (Euphorbia heterophylla), 35 g ai/ha, read-out: Visual Growth Reduction (%) 14 Days After Application EPHHL
PARAMETER: pest or weed control at 35 g/ha

Data request: So what pest or weed control at 35 g/ha did `COc1c(N)nc(-c2ccc3c(c2F)OC(F)(F)O3)nc1C(=O)O` get with Key Broadleaf Weed and Crop Species?
Data returned: 95 to 100%

Data request: So what pest or weed control at 35 g/ha did `COC(=O)c1nc(-c2ccc(Cl)c3c2OC(F)(F)O3)c(Cl)c(N)c1Cl` get with Key Broadleaf Weed and Crop Species?
Data returned: 0 to 29%

Data request: So what pest or weed control at 35 g/ha did `COC(=O)c1nc(-c2cc3c(cc2F)OC(F)(F)O3)c(F)c(N)c1F` get with Key Broadleaf Weed and Crop Species?
Data returned: 0 to 29%

Data request: So what pest or weed control at 35 g/ha did `COc1c(C(=O)O)nc(-c2cc3c(cc2F)OC(F)(F)O3)c(F)c1N` get with Key Broadleaf Weed and Crop Species?
Data returned: 95 to 100%

Data request: So what pest or weed control at 35 g/ha did `COC(=O)c1nc(-c2ccc3c(c2C)OC(F)(F)O3)cc(N)c1Cl` get with Key Broadleaf Weed and Crop Species?
Data returned: 0 to 29%

Data request: So what pest or weed control at 35 g/ha did `Nc1c(F)c(-c2cc3c(cc2F)OC(F)(F)O3)nc(C(=O)O)c1Cl` get with Key Broadleaf Weed and Crop Species?
Data returned: 45 to 59%

* * *

- Tested on: Wheat and Barley and weed species
- ASSAY: Post-Emergent Test III: postemergent herbicidal activity in wheat and barley, visual rating after 21 d and probit GR20/GR50/GR80/GR90 (Tables 9-13)
- Assay type: in vivo
- TEST PARAMETERS: LOLSS ryegrass; growth reduction of 50%; probit analysis
PARAMETER: GR50 LOLSS (g ai/ha)
Give the number; g ai/ha is assumed, so skip it.

Past entries and their recorded results:
1) Nc1c(F)c(-c2ccc3c(c2F)OC(F)(F)O3)nc(C(=O)O)c1Cl    31
2) COC(=O)c1nc(-c2cc3c(cc2F)OC(F)(F)O3)c(F)c(N)c1Cl    70
3) COC(=O)c1nc(-c2cc3c(cc2F)OC(F)(F)O3)cc(N)c1Cl    54
4) COC(=O)c1nc(-c2c(F)cc3c(c2F)OC(F)(F)O3)cc(N)c1Cl    91
5) COC(=O)c1nc(-c2ccc3c(c2F)OC(F)(F)O3)c(F)c(N)c1Cl    93

Next item in the queue.
Data request: So what GR50 LOLSS did `Nc1cc(-c2cc3c(cc2F)OC(F)(F)O3)nc(C(=O)O)c1Cl` get with Wheat and Barley and weed species?
Data returned: 44

* * *

Reported pest or weed control at 70 g/ha values for the following compounds.
- System: Wheat and Barley and weed species
- ASSAY: Post-Emergent Test III: postemergent herbicidal activity in wheat and barley, visual rating after 21 d and probit GR20/GR50/GR80/GR90 (Tables 9-13)
- Format: in vivo
- TEST PARAMETERS: post-emergence, 504 h; SETVI green foxtail (Setaria viridis); 70 g ai/ha; read-out: Visual Growth Reduction (%) 21 Days After Application SETVI

Past entries and their recorded results:
1. Nc1c(F)c(-c2ccc3c(c2F)OC(F)(F)O3)nc(C(=O)O)c1Cl    85 to 94%
2. COC(=O)c1nc(-c2ccc3c(c2)OC(C)(C)O3)c(F)c(N)c1Cl    75 to 84%

Data request: Query: pest or weed control at 70 g/ha; subject: `Nc1c(F)c(-c2cc3c(cc2F)OC(F)(F)O3)nc(C(=O)O)c1Cl`
Data returned: 95 to 100%
